# target.system: human GLP-1R (Homo sapiens, UniProt P43220)
# Sequence (P43220 24-463): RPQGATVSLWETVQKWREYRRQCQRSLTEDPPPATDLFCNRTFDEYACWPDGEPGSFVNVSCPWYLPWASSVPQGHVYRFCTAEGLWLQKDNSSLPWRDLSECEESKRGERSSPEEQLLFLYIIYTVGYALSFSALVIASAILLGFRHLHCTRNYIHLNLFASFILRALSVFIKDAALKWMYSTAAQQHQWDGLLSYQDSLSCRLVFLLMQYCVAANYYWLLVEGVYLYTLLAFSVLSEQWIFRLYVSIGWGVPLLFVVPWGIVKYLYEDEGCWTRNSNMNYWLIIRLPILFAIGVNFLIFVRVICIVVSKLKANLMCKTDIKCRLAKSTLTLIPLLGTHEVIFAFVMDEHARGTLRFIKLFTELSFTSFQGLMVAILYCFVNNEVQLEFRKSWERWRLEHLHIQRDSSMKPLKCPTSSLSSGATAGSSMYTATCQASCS
# assay: GLP-1 receptor in vitro calcium assay (intracellular free calcium concentration change induced via GLP-1 receptor)
# setup.conditions: PRG48 cells transfected with human GLP-1R; compound added with 250 pM GLP-1; Ca2+ response ΔF/F; read-out: Ca EC50 value
reported.property: EC50 (nM)

> print(dat)
                                   compound  reported.property  units.of.measure  value.observed
1  Cc1ccc(S(=O)(=O)Nc2ccc(NC(=O)N[C@H](Cc3ccccc3)C(=O)NC[C@H]3CCC4CC3C4(C)C)cc2)cc1 (stereo partly shown) [Compound 60]               EC50                nM              45
2  CC[S+]([O-])c1nc(-c2cccc(OCc3ccccc3)c2)cc(C(F)(F)F)n1 (stereo not shown) [BETP, reference compound]               EC50                nM           25000
3  Cc1ccc(S(=O)(=O)Nc2ccc(NC(=O)N[C@H](Cc3ccccc3)C(=O)NCc3ccccc3)cc2)cc1 [Compound 14]               EC50                nM            1800
4  CCCCCCNc1ccc(S(=O)(=O)Nc2cccc(NC(=O)N[C@H](CC3CCCCC3)C(=O)NCC(CC)CCCC)c2)cn1 (stereo partly shown) [Compound 114]               EC50                nM              30
5  COc1cc(NC(=O)N[C@H](Cc2ccccc2)C(=O)OC(C)(C)C)ccc1NS(=O)(=O)c1ccc(C)cc1 [Compound 88]               EC50                nM            1300

I = Cc1ccc(S(=O)(=O)Nc2ccc(NC(=O)N[C@@H](Cc3ccc(OC(C)(C)C)cc3)C(=O)OC(C)(C)C)cc2)cc1 [Compound 66]
II = CCCCC(CC)CNC(=O)[C@@H](Cc1ccc(Cl)cc1)NC(=O)Nc1ccc(NS(=O)(=O)c2ccc(C)cc2)cc1 (stereo partly shown) [Compound 39]
Which value of EC50 is smaller, the one for I or the one for II ? Please identify the chosen entry by its label.
II

---

# target.system: human GLP-1R (Homo sapiens)
# Construct: expressed in transfected cells; host or cells: PEAK RAPID-derived Gα15-trans48 LD stably expressing cells (PRG48), transiently transfected with Lipofectamine 2000
# assay: GLP-1 receptor in vitro calcium assay (intracellular free calcium concentration change induced via GLP-1 receptor)
# Format: cell-based
# setup.conditions: intensity compared to BETP, activity of BETP as 1
reported.property: GLP-1 receptor action enhancing activity (vs BETP)

Examples with answers:
> print(dat)
                                   molecule  value.observed
1  Cc1ccc(S(=O)(=O)Nc2ccc(NC(=O)N[C@H](Cc3ccccc3)C(=O)NCC3CCCCC3)cc2)cc1              50
2  Cc1ccc(S(=O)(=O)Nc2ccc(NC(=O)N[C@H](CC(C)C)C(=O)OC(C)(C)C)cc2)cc1              15

P = CC(C)CCCC(C)NC(=O)[C@@H](Cc1ccncc1)NC(=O)Nc1ccc(NS(=O)(=O)c2ccc(C(C)(C)C)cc2)cc1 (some centres unmarked)
Q = Cc1ccc(S(=O)(=O)Nc2ccc(NC(=S)N[C@H](Cc3ccccc3)C(=O)OC(C)(C)C)cc2)cc1
Which value of GLP-1 receptor action enhancing activity (vs BETP) is smaller, the one for P or the one for Q ? Please identify the chosen entry by its label.
Q

a = Cc1ccc(S(=O)(=O)Nc2ccc(NC(=O)N[C@H](CC(C)C)C(=O)NCC3CCCCC3)cc2)cc1
b = CC(C)CCCC(C)NC(=O)[C@@H](CC1CCCCC1)NC(=O)Nc1cccc(NS(=O)(=O)c2ccc(C(C)(C)C)cc2)c1 (some centres unmarked)
Which value of GLP-1 receptor action enhancing activity (vs BETP) is smaller, the one for a or the one for b ? Please identify the chosen entry by its label.
a
(a: 27, b: 1028)

A = CCC(CC)CNC(=O)[C@@H](CC(C)C)NC(=O)Nc1ccc(NS(=O)(=O)c2ccc(C)cc2)cc1
B = COC(C)(C)CNC(=O)[C@@H](Cc1ccccc1)NC(=O)Nc1ccc(NS(=O)(=O)c2ccc(C)cc2)cc1
Endpoint returns the identifier whose GLP-1 receptor action enhancing activity (vs BETP) is numerically larger, either A or B . Please identify the chosen entry by its label.
B
(B: 39, A: 21)

The reported numbers originate from patent US20190022039A1.
